- Tested on: MOLM-13 cells
- Protocol Details: Cell viability assay (CellTiter-Glo) in MOLM-13 cells, alone or with gilteritinib
- Type: cell-based
- Condition Label: Homo sapiens, MOLM-13, 72 h, MOLM-13 cells, compound alone (without gilteritinib), three days, CellTiter-Glo; read-out: MOLM-13 IC50
pIC50: −log10 of the molar value.
Reported pIC50 is given for each of the following molecules.

Solved cases (4 shown):
O=C(CC1CCC(N2CCC(n3cc(-c4cnc5ccccc5n4)cn3)CC2)CC1)NCc1ccc2c(c1)CN(C1CCC(=O)NC1=O)C2=O (stereo not drawn)	< 6.00
CN1CCN(c2ccc3ncc(-c4cn(CCCCCCNc5ccc6c(c5)C(=O)N(C5CCC(=O)NC5=O)C6=O)nc4C4CC4)nc3c2)CC1 (stereo not drawn)	6.00 to 7.00
O=C1CCC(N2C(=O)c3ccc(NCCC[C@H]4C[C@@H](n5cc(-c6cnc7ccccc7n6)cn5)C4)cc3C2=O)C(=O)N1 (stereo partly drawn)	< 6.00
CN1CCN(c2cn([C@H]3C[C@H](CNc4ccc5c(c4)C(=O)N(C4CCC(=O)NC4=O)C5=O)C3)nc2C2CC2)CC1 (stereo partly drawn)	< 6.00

Note to self: pIC50 recorded for O=C1CCC(N2C(=O)c3ccc(NC[C@H]4C[C@H](n5cc(-c6cc7[nH]cnc7cn6)c(C6CC6)n5)C4)cc3C2=O)C(=O)N1 (stereo partly drawn) was 6.00 to 7.00

The reported pIC50 of the molecule COc1ccnc(-c2cn([C@H]3C[C@H](CNc4ccc5c(c4)C(=O)N(C4CCC(=O)NC4=O)C5=O)C3)nc2C2CC2)c1 (stereo partly drawn) was 7.00 to 8.00
